# Tested on: SK-MEL-5 melanoma
# assayComment: NCI-60 one-dose screen, 48 h (100 = growth as untreated, 0 = no growth, -100 = all killed)
# conditionDescription: 10 µM unless noted
Compounds without any hit were thinned out: in the full panel of roughly 83,000, 20% have a hit.
Label Satisfied when growth is at or above 80%; anything below gets Not satisfied.

Solved entries:
• Cc1ccc(OC(=O)c2ccc(Cl)cc2)cc1 = Satisfied
• O=[N+]([O-])c1ccc(Nc2nc(NCCN3CCOCC3)ncc2[N+](=O)[O-])cc1 = Satisfied

Query: Textbook exercise: given the entry CCOC(=O)c1csc(NC(=O)COc2cccc(/C=C3\CSc4ccccc4C3=O)c2)n1 , state whether its growth is greater than or equal to 80%.
Result: Not satisfied

Query: Quick check, growth >= 80%? COc1cc(/C=C/C(=O)c2ccc(O)c(CN3CCN(c4cc5c(cc4F)c(=O)c(C(=O)O)cn5C4CC4)CC3)c2)cc(OC)c1OC
Result: Not satisfied

Query: Decide: growth of CN(C)CCN1C(=O)c2cccc3c(N)ccc(c23)C1=O >= 80%?
Result: Not satisfied

----------
# Tested on: NCI-H226 lung
# assayComment: NCI-60 one-dose screen, 48 h (100 = growth as untreated, 0 = no growth, -100 = all killed)
# conditionDescription: 10 µM unless noted
Compounds without any hit were thinned out: in the full panel of roughly 83,000, 20% have a hit.
growth for assorted molecules
// units = %; emit number, no label

* O=C(Oc1cccnc1)c1ccsc1Nc1ccnc(C(F)(F)F)c1 | 98.6
* COc1cccc(-c2nc3sccn3c2-c2ccnc(NCCCNS(=O)(=O)c3cccc(F)c3)c2)c1 | 19.1
* COc1cc(-c2nn(C)nc2-c2cc3ccccc3s2)cc(OC)c1OC | 55.5
* COc1ccc(/C=N/C2=C(C#N)C(c3ccc(N(C)C)cc3)c3ccc4ccccc4c3O2)cc1 (centres undefined) | 44.6

Query: Respond only with growth recorded for CCn1c(O)c(/C=N/NC(=O)C(C)c2ccc(CC(C)C)cc2)sc1=S (centres undefined)
Result: 31.1

Query: Given COc1ccc(C2CC(c3ccc(Cl)cc3)=NN2/C=C2\SC(=S)N(NC(=O)Cc3ccccc3Nc3c(Cl)cccc3Cl)C2=O)cc1 (centres undefined) , respond with its growth.
Result: 68.8

Query: Consider the molecule Nc1nc2ncc(CCNc3ccc(C(=O)O)cc3)nc2c(=O)[nH]1 . State its measured growth.
Result: 100

Query: Assign growth to the following record: COc1cc2c(cc1O)CC[C@@H]1[C@@H]2CC[C@]2(C)[C@@H](OCCN(C)C)CC[C@@H]12
Result: 76.5

Query: Entry CCN1CCN(c2nc(NCCCNc3ccnc4cc(Cl)ccc34)c3ccccc3n2)CC1 needs its growth filled in; supply it.
Result: 60.4

----------
# Test system: A498 renal
# assayComment: NCI-60 one-dose screen, 48 h
# conditionDescription: 10 µM unless noted
About 83,000 compounds went through this panel and 20% of them were active in at least one assay; those are over-represented in the sample as a whole. Calls of active or inactive are those of the source. How the source made its calls: active means growth percent below 10; inactive means the rest.
Result category, one only: active, inactive

- O=C1Nc2ccc(Br)cc2C12Oc1ccccc1C1CC(c3ccc(F)cc3)=NN12 (stereo not given): inactive
- Cn1c(NCCc2ccc(O)c(O)c2)nc2c1c(=O)n(Cc1ccc(Br)cc1)c(=O)n2C: inactive

Query: Hello, I am checking results. What call was entered for C#Cc1cccc(NC(=O)c2ccccc2NC(=O)CCl)c1 ?
Result: inactive

Query: Could you kindly confirm the outcome this assay logged for COc1ccc(N=Nc2nccs2)c(O)c1 ?
Result: inactive

Query: How did this test come out for O=c1cc(CSc2nnc(-c3ccc(F)cc3)o2)c2ccc3ccccc3c2o1 ?
Result: inactive

Query: Dear all, I need the recorded test outcome for COc1ccc(S(=O)(=O)N2CC3(COC3)C2)cc1NC(=O)c1[nH]c(C)c2c1CCCCC2=O , thank you.
Result: inactive

Query: Record request — test call for Cn1cc(-c2nonc2-c2cn(C)c3ccc(F)cc23)c2ccccc21
Result: active

Query: Which outcome did this test record for the molecule CCNC(=O)Oc1ccc(/C(=C(\C)c2ccc(Cl)cc2)c2ccc(OCCN(CC)CC)cc2)cc1 ?
Result: inactive

Query: Called result for O=C(N/N=C/c1ccccc1O)c1ccccc1Nc1ccnc(C(F)(F)F)c1
Result: active

Query: Just curious, what result did O=C(/C=C/c1ccccc1)c1ccc(O)c(CN2CCN(c3cc4c(cc3F)c(=O)c(C(=O)O)cn4C3CC3)CC2)c1 get here?
Result: active

Query: Could you kindly confirm the outcome this assay logged for C/C1=C\CC[C@@]2(C)O[C@H]2[C@H]2OC(=O)C(CN3CCN(CC4C(=O)O[C@H]5[C@H]4CC/C(C)=C/CC[C@@]4(C)O[C@@H]54)CC3)[C@@H]2CC1 (stereo not given in full) ?
Result: inactive

Query: Please share the test call associated with N#Cc1nnn(-c2ccc(S(N)(=O)=O)cc2)c1NCC(=O)c1ccccc1 .
Result: inactive

Query: # fetch the recorded call for CN(C)c1ccc(N=Nc2ccccn2)c(O)c1 here
Result: inactive

Query: Per the assay record, what outcome was assigned to CCn1c(Cc2ccccc2Nc2c(Cl)cccc2Cl)nnc1SCC(=O)NN1C(=O)/C(=C/c2cc(OC)c(O)c(OC)c2)SC1=S ?
Result: inactive

Query: GET /call?item= O=C(Cn1cccc(Nc2ccccc2)c1=O)Nc1ccccc1 returns the recorded outcome of this test.
Result: inactive

Query: For COc1cccc(-c2nc3sccn3c2-c2ccnc(NCCNS(=O)(=O)c3ccc(F)cc3)c2)c1 , what call appears in the results of this test?
Result: inactive

Query: Look up the recorded call for CN(C)c1ccc(N=Nc2ccc(Br)cn2)c(O)c1 in this test.
Result: inactive

Query: Given CN(C)CCN1C(=O)c2cccc3c(N)ccc(c23)C1=O , state the outcome it received in this test.
Result: inactive

Query: Outcome logged for C#CC(F)(F)[C@]1(O)CC[C@H]2[C@@H]3CCC4=CC(=O)CCC4=C3[C@@H](c3ccc(C4CC4)cc3)C[C@@]21C in this assay:
Result: active

Query: Fill in: this test's call for Cn1cc(C(=O)c2nc(-c3c[nH]c4ccc(Br)cc34)no2)c2cc(F)ccc21 is ___
Result: inactive

----------
# System: NCI-H460 lung
# assayComment: NCI-60 one-dose screen, 48 h (100 = growth as untreated, 0 = no growth, -100 = all killed)
# conditionDescription: 10 µM unless noted
Compounds without any hit were thinned out: in the full panel of roughly 83,000, 20% have a hit. Activity calls are given as the source filed them. Rule for the calls: active = growth percent below 10; inactive = the rest.
parameter: growth

Below are worked cases with known answers.
• CC1=C(O)C(=O)C(C(C#N)(C#N)C(C#N)C#N)C1 (stereo not given) = 102% (inactive)
• COc1ccc(-c2nc3ccc(-c4nc5ccc(N6CCN(C)CC6)cc5[nH]4)cc3[nH]2)cc1OC = 103% (inactive)
• OCc1ccc(N2CCc3cccc(F)c3C2)cc1Cl = 31% [0.1 µM] (inactive)

Query: For the compound O=C(Nc1cccc2[nH]c(C(F)(F)F)nc12)c1ccc(-n2cnnn2)cc1 , give its measured growth value.
Result: 81.9% (inactive)

Query: Please indicate growth recorded for COc1ccc(C2C(C#N)=C(N)Oc3n[nH]c(-c4cccs4)c32)cc1I (stereo not given)
Result: 101% (inactive)

----------
The entries below are paired with their reported growth.
# Test system: DU-145 prostate
# assayComment: NCI-60 one-dose screen, 48 h (100 = growth as untreated, 0 = no growth, -100 = all killed)
# conditionDescription: 10 µM unless noted
The panel holds about 83,000 compounds, 20% with a hit somewhere; the sample as a whole holds those more often. Active and inactive are the calls of the source. The calls were made as follows: active = growth percent below 10; inactive = the rest.

• CC(C)(C)CC(C)(C)c1ccc(OCCOCC[N+](C)(C)Cc2ccccc2)cc1 = 39.4% (inactive)
• O=C1c2ccccc2OC=C(c2ccccc2)N1CCCCNc1ccc(S(=O)(=O)Nc2ncccn2)cc1 = 109% (inactive)
• COC(=O)c1ccc(NC(=O)c2ccc(-c3cccc([N+](=O)[O-])c3)o2)cc1 = 110% (inactive)
• COc1ccc(-n2nc(C)c3c(Oc4ccc(NC(=O)Nc5c(Cl)cccc5Cl)cc4)ncnc32)cc1 = 105% (inactive)
• CC/C=C\C/C=C\C[C@H]1C/C=C2/C(=O)C=C[C@@H]2C/C=C\CCC(=O)O1 = 23.2% (inactive)

Query: For the molecule COc1ccc(C2C(C#N)=C(N)Oc3n[nH]c(-c4cccs4)c32)cc1I (stereo not given) , give its measured growth value.
Result: 107% (inactive)

Query: Give recorded growth. CCOC(=O)n1cc(-c2nonc2-c2cn(C)c3ncccc23)c2ccccc21
Result: 97.1% (inactive)

Query: Give growth for NC(=NCCCOc1ccc(Cl)cc1)Nc1ccc(Cl)cc1
Result: 16.9% (inactive)

Query: For the molecule Oc1ccc(N=Cc2ccccc2O)cc1 , report growth.
Result: 103% (inactive)

Query: Query growth for CCCCn1c(-c2ccc(C(=O)O/N=C(\N)c3ccc4c(c3)OCO4)cc2)nc(-c2ccccc2)c1-c1ccccc1
Result: 46.4% (inactive)

Query: Return growth for the following molecule: Clc1ccc2c(NCCCCNc3nc(N4CCOCC4)nc4ccccc34)ccnc2c1
Result: 38.4% (inactive)

Query: For the molecule Cc1nc(/N=C(\N)NC(=O)Nc2cccc([N+](=O)[O-])c2)sc1C , give its measured growth value.
Result: 89.8% (inactive)

Query: State its growth: COc1cccc(/C=C2\SC(=Nc3ccc(NC(C)=O)cc3)NC2=O)c1OC
Result: 85.1% (inactive)

Query: Kindly indicate its recorded growth. Item: COc1ccc(/C=N/C2=C(C#N)C(c3ccc(N(C)C)cc3)c3ccc4ccccc4c3O2)cc1 (stereo not given)
Result: 81.5% (inactive)

Query: Give the measured growth for COc1ccc(S(=O)(=O)N2CCCCCC2)cc1NC(=O)c1[nH]c(C)c2c1CCCCC2=O
Result: 58% (inactive)

Query: Supply growth value. Item: Cc1ccc(O)c(N2C(=NCc3ccco3)NS(=O)(=O)c3cnccc32)c1
Result: 118% (inactive)

Query: State, in one line, measured growth of CCc1nnc(CNc2ccc(Cl)cc2)o1
Result: 108% (inactive)
